Task for the reader: assign each of the following compounds its reported Inhibition.
test system: Cryptococcus neoformans; settings: Concentration 32 ug.mL-1; ASSAY_TEST Inhibition of Fungal Growth; detection method Resazurin; Absorption (OD600-OD570); plate type 384well; NBS; CORNING #3640
Description: Antifungal activity against Cryptococcus neoformans H99 ATCC 208821 (CO-ADD:FG_002); MIC in YNB media using NBS plates, by Resazurin OD(600-570)
Results with a measured potency or affinity are listed apart.
Give bare numbers, in %.

Check out these entries, answers already filled in.
- COMPOUND: "O=C(NNC(=O)[C@@H]1C[C@H](C(=O)O)[C@@H]2CC=C[C@@H]21)c1ccncc1"
  READOUT KIND: "Inhibition"
  ENDPOINT VALUE: -37.2
- COMPOUND: "O=C(N/N=C1/C[C@@H]2[C@H](C1)[C@H](OC(=O)c1ccccc1)C[C@@H]2OC(=O)c1ccccc1)c1ccncc1"
  READOUT KIND: "Inhibition"
  ENDPOINT VALUE: -110.81
- COMPOUND: "CC(C)(C)[Si](C)(C)O[C@H](/C=C/[C@@H]1[C@@H](CC=NNC(=O)c2ccncc2)[C@@H](O)C[C@H]1O[Si](C)(C)C(C)(C)C)CCc1ccccc1"
  READOUT KIND: "Inhibition"
  ENDPOINT VALUE: -66.75
- COMPOUND: "CC(C)(C)[Si](C)(C)OCC1C2C[C@H]3C1[C@@H]3/C2=N/NC(=O)c1ccncc1 (some centres undefined)"
  READOUT KIND: "Inhibition"
  ENDPOINT VALUE: -48.28
- COMPOUND: "COC(=O)CCCCCC[C@@H]1[C@@H](/C=N/NC(=O)c2ccncc2)[C@H](O)C[C@@H]1O"
  READOUT KIND: "Inhibition"
  ENDPOINT VALUE: -95.51

Please report Inhibition for every entry that follows.
1. O=C(NN=CC[C@@H]1[C@@H](/C=C/[C@@H](O)CCc2ccccc2)[C@H](O)C[C@@H]1O)c1ccncc1
2. O=C(NNC(=O)c1cccc([N+](=O)[O-])c1C(=O)O)c1ccncc1
3. O=C(N/N=C/COc1cccc(Cl)c1)c1ccncc1
4. O=C(NNC(=O)c1ccc([N+](=O)[O-])cc1C(=O)O)c1ccncc1
5. O=C(N/N=C1\C[C@@H]2[C@H](COC(c3ccccc3)(c3ccccc3)c3ccccc3)C[C@H](CO)[C@@H]2C1)c1ccncc1
6. O=C(N/N=C/[C@@H]1C[C@H](CO)[C@@H]2CCC[C@@H]21)c1ccncc1
7. O=C(N/N=C1\C[C@@H]2[C@@H](CO)[C@H]1C[C@H]2Cl)c1ccncc1

Response:
1. -90.23
2. -5.54
3. -88.39
4. -51.18
5. -65.69
6. -36.93
7. -60.68

Report Inhibition for every entry below.
1. O=C(N/N=C1/C2C[C@H]3C(C2CO)[C@H]13)c1ccncc1 (some centres undefined)
2. O=C1C[C@@H]2[C@@H](C=NNC(=O)c3ccncc3)[C@@H](C[C@H]2Cl)O1
3. O=C(N/N=C1\CC[C@@H]2[C@H]1[C@H](OC(=O)c1ccccc1)C[C@@H]2OC(=O)c1ccccc1)c1ccncc1
4. O=C(NN=CC[C@H]1[C@H](CO)[C@@H](O)C[C@H]1O)c1ccncc1
5. O=C(N/N=C1/C[C@@H]2[C@@H](C(=O)O)[C@H]1C[C@H]2Cl)c1ccncc1

Response:
1: -50.92; 2: -98.94; 3: -65.69; 4: -70.97; 5: -56.2

Below are some compounds; for each one, tell me its Inhibition.
1. O=C(N/N=C/C[C@@H]1[C@@H](/C=C/[C@@H](O)COc2ccccc2)[C@H](O)C[C@@H]1O)c1ccncc1
2. O=C(ON/N=C/[C@@H]1[C@@H]2C[C@H](Cl)[C@H]1C[C@H]2O)c1ccncc1

Response:
[-89.18, -97.88]
